Values compiled from patent US5336763A.

- System: strains TA98
- Assay type: cell-based
- STUDY_CONDITIONS: 313 μg/plate, with S-9
MEASUREMENT_NAME: Ames test: ratio of number of colonies to control

{"columns": ["COMPOUND", "VALUE"],
 "data": [
  ["CCC(C)c1ccc(N=Nc2c(S(=O)(=O)O)cc3cc(S(=O)(=O)O)c(N=Nc4ccc(Oc5cccc(Oc6ccc(N=Nc7ccc(O)cc7O)cc6)c5)cc4)c(N)c3c2O)cc1 (stereo not drawn)", 1.59],
  ["CCC(C)c1ccc(N=Nc2c(S(=O)(=O)O)cc3cc(S(=O)(=O)O)c(N=Nc4ccc(Oc5ccc(Oc6ccc(N=Nc7ccc(O)cc7O)cc6)cc5)cc4)c(N)c3c2O)cc1 (stereo not drawn)", 0.98],
  ["Nc1ccc(N=Nc2ccc(Oc3ccc(Oc4ccc(N=Nc5c(S(=O)(=O)O)cc6cc(S(=O)(=O)O)c(N=Nc7ccc(S(=O)(=O)O)cc7)c(O)c6c5N)cc4)cc3)cc2)c(O)c1", 0.92]
]}
